# target-under-test: PRMT5-MEP50 (Homo sapiens)
# Sequence (O14744 whole entry): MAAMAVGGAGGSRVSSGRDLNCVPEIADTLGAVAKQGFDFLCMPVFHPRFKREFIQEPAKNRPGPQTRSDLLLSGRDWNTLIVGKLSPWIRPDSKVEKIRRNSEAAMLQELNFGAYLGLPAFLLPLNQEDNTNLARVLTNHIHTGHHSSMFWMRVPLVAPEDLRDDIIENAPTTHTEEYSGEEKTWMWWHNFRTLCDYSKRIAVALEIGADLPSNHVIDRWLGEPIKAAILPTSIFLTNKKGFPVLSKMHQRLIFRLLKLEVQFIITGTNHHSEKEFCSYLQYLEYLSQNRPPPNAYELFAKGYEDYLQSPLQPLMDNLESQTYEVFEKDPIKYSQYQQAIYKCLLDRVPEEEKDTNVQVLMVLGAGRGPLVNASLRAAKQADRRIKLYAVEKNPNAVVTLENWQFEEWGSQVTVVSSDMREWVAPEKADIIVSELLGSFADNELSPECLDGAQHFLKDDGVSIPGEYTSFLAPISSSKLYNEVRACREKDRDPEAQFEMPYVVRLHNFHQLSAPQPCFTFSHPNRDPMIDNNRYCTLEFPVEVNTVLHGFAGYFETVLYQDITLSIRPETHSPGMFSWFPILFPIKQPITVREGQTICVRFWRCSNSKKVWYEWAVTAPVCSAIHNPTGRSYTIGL
# Sequence (Q9BQA1 whole entry partner): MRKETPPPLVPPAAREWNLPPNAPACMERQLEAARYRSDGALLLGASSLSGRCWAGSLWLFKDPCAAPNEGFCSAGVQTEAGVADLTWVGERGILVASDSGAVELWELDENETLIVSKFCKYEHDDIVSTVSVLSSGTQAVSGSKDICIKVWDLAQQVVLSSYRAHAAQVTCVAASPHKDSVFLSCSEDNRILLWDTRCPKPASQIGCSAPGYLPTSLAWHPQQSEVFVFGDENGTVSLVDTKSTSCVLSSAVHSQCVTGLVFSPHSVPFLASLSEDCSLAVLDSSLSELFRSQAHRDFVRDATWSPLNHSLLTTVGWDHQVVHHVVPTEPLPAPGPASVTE
# measurement-description: PRMT5 Assay (PRMT5 biochemical assay)
# test-parameters: PRMT5 biochemical assay; read-out: PRMT5 IC50
quantity-measured: IC50

[[record]]
chem_smiles = "CN(C)Cc1cccc(OC[C@H]2O[C@@H](n3cc(Br)c4c(N)ncnc43)[C@@H](F)[C@@H]2O)c1"
quantity_measured = "IC50"
result = "100 to 1000 nM"

[[record]]
chem_smiles = "Nc1ncnc2c1ccn2[C@@H]1C[C@H](CCc2ccc3nccnc3c2)[C@@H](O)[C@H]1O"
quantity_measured = "IC50"
result = "< 10 nM"

[[record]]
chem_smiles = "CNc1ccc2ccc(OC[C@H]3O[C@@H](n4cc(Br)c5c(N)nc(N)nc54)[C@@H](F)[C@@H]3O)cc2n1"
quantity_measured = "IC50"
result = "10 to 100 nM"

[[record]]
chem_smiles = "Nc1ncnc2c1ccn2[C@@H]1C[C@H](CCc2ccc3ccc(NCC4CC4)nc3c2)[C@@H](O)[C@H]1O"
quantity_measured = "IC50"
result = "< 10 nM"

[[record]]
chem_smiles = "Nc1ccnc2cc(OC[C@H]3O[C@@H](n4cc(Br)c5c(N)ncnc54)[C@@H](F)[C@@H]3O)ccc12"
quantity_measured = "IC50"
result = "10 to 100 nM"

[[record]]
chem_smiles = "Nc1ncnc2c1ccn2[C@@H]1O[C@H](COc2ccc3ccc(N[C@H]4C[C@@H](N)C4)nc3c2)[C@@H](O)[C@@H]1F"
quantity_measured = "IC50"
result = "100 to 1000 nM"

[[record]]
chem_smiles = "CNc1ccc2ccc(OC[C@H]3O[C@@H](n4cc(C(F)(F)F)c5c(N)ncnc54)[C@@H](F)[C@@H]3O)cc2n1"
quantity_measured = "IC50"
result = "100 to 1000 nM"


* * *

# target-under-test: METTL3/METTL14 (Homo sapiens, UniProt Q86U44)
# Sequence (Q86U44 whole entry, species assumed): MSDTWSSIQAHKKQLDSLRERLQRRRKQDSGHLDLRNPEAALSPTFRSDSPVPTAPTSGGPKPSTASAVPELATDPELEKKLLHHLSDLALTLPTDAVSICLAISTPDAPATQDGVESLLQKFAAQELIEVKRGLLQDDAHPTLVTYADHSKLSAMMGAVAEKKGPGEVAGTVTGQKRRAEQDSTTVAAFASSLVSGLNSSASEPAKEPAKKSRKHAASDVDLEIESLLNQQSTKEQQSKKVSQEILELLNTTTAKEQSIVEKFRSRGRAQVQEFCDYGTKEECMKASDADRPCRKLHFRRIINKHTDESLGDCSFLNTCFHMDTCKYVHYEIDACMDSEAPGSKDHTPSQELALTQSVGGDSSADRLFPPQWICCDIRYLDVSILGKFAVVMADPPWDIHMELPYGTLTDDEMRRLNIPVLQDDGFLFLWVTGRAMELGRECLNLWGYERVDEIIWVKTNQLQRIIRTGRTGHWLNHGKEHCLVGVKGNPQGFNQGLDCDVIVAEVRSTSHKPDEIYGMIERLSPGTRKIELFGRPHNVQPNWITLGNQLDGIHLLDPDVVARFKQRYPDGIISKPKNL
# Sequence (Q9HCE5 whole entry partner, species assumed): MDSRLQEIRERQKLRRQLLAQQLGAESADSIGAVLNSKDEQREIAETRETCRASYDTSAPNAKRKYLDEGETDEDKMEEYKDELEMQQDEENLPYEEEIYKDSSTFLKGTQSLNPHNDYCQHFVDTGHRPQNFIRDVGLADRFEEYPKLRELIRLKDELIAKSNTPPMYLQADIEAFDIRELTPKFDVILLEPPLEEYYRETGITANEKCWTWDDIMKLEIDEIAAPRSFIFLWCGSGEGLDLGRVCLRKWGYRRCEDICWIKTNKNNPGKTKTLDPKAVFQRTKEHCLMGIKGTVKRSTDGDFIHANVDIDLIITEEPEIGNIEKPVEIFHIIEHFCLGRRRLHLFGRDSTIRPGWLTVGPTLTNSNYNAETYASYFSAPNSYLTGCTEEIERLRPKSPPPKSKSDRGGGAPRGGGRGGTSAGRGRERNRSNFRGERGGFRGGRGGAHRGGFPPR
# measurement-description: METTL3-14 Standard Enzyme Assay (METTL3 biochemical assay)
pIC50: −log10 of the molar value.
quantity-measured: pIC50

[[record]]
chem_smiles = "CNc1ccc2ccc(OC[C@H]3O[C@@H](n4cc(-c5ccc(C)cn5)c5c(N)ncnc54)[C@@H](F)[C@@H]3O)cc2n1"
result = "> 8.00"

[[record]]
chem_smiles = "Cn1ccc(-c2cn([C@@H]3O[C@H](COc4ccc5ncc(N6CCC6)nc5c4)[C@@H](O)[C@@H]3F)c3ncnc(N)c23)n1"
result = "7.00 to 8.00"

[[record]]
chem_smiles = "CNc1nc2cc(OC[C@H]3O[C@@H](n4cc(-n5cccn5)c5c(N)ncnc54)[C@@H](F)[C@@H]3O)ccc2s1"
result = "6.00 to 7.00"

[[record]]
chem_smiles = "CCc1cc(NCCOC)c2ncc(OC[C@H]3O[C@@H](n4cc(-c5ccn(C)n5)c5c(N)ncnc54)[C@H](O)[C@@H]3O)cc2n1"
result = "> 8.00"

[[record]]
chem_smiles = "Nc1ncnc2c1c(-n1ccc(C(F)(F)F)n1)cn2[C@@H]1O[C@H](COc2ccc3ccc(N4CCC4)nc3c2)[C@@H](O)[C@@H]1F"
result = "> 8.00"

[[record]]
chem_smiles = "CCc1cc(N(C)C2CC2)c2ccc(OC[C@H]3O[C@@H](n4cc(-c5ccn(C)n5)c5c(N)ncnc54)C[C@@H]3O)cc2n1"
result = "> 8.00"

[[record]]
chem_smiles = "Cn1ccc(-c2cn([C@@H]3O[C@H](COc4ccc(C(=O)N5CCNCC5)c(N)c4)[C@@H](O)[C@@H]3F)c3ncnc(N)c23)n1"
result = "6.00 to 7.00"

[[record]]
chem_smiles = "Cn1ccc(-c2cn([C@@H]3O[C@H](COc4ccc5ccc(NC6CNC6)nc5c4)[C@@H](O)[C@@H]3F)c3ncnc(N)c23)n1"
result = "6.00 to 7.00"

[[record]]
chem_smiles = "CCc1nc2cc(OC[C@H]3O[C@@H](n4cc(-c5ccn(C)n5)c5c(N)ncnc54)[C@@H](F)[C@@H]3O)ccc2[nH]1"
result = "6.00 to 7.00"

[[record]]
chem_smiles = "Nc1ncnc2c1c(-n1cccn1)cn2[C@@H]1O[C@H](COc2ccc3ccc(N4CCC4)nc3c2)[C@@H](O)[C@@H]1F"
result = "> 8.00"

[[record]]
chem_smiles = "Cn1ccc(-c2cn([C@@H]3C[C@H](CCc4ccc5ccc(N6CCC6)nc5c4)[C@@H](O)[C@@H]3F)c3ncnc(N)c23)n1"
result = "> 8.00"

[[record]]
chem_smiles = "CCc1cc(N2CCOCC2)c2ccc(OC[C@H]3O[C@@H](n4cc(-c5ccn(C)n5)c5c(N)ncnc54)[C@@H](F)[C@@H]3O)cc2n1"
result = "> 8.00"

[[record]]
chem_smiles = "Cn1ccc(-c2cn([C@H]3C[C@H](O)[C@@H](COc4ccc5ccc(N6CCC6)nc5c4)O3)c3ncnc(N)c23)n1"
result = "> 8.00"

